- System: SK-OV-3 ovarian
- test name: NCI tumour cell line growth inhibition, 48 h
Where a SMILES comes first, the peptide text is derived from it. [ ]: non-standard residue; d: D form. The star is where a group is joined. ξ: configuration not given here. 4Abz = Nc1ccc(C(=O)O)cc1; ξL = CC(C)CC(N)C(=O)O; NHOH = ON*
measured metric: GI50

O=C(/C=C/c1ccco1)c1ccc(Nc2ccnc3cc(Cl)ccc23)cc1 ... > 100 µM
COc1cc(C2CC(c3ccc(C)cc3)=NN2C(C)=O)ccc1Oc1ccnc2cc(Cl)ccc12 (stereo unspecified) ... 32.4 µM
COc1ccc(-c2ccc(/C=N/n3cnn(CN4CCN(C)CC4)c3=S)o2)c([N+](=O)[O-])c1 ... 36.4 µM

So, CC(C)=CCNc1ncnc2c1ncn2C1OC(COP(=O)(O)O)C(O)C1O (stereo unspecified) ? Its GI50 was 4.77 µM

O=C(CCCCCn1c2ccccc2c2c3c(c4c5ccccc5[nH]c4c21)C(=O)N(O)C3=O)N1CCOCC1 yielded GI50 of 2.27 µM

Looking up CC(=O)c1c[nH]c2ccc(-c3ccnc(Nc4ccc(NC(=O)c5cccc(F)c5)c(CN5CCOCC5)c4)n3)cc12 , I see its GI50 listed as 0.562 µM

// sample N=C(N)c1ccc(-c2ccc(-c3ccco3)o2)cc1 , its GI50 was 9.21 µM

The reported GI50 of the compound CC(C)CC(NC(=O)[C@@H]1CCCN1C(=O)CNC(=O)c1ccc(N)cc1)C(=O)N[C@H](C)C(=O)NO (stereo partly specified) (H-[4Abz]GP[ξL][dA]-{NHOH}) was > 100 µM

The compound listed as N#CC1=C(N)Oc2c(sc3c(F)cccc23)C1c1ccc(Cl)cc1 (stereo unspecified) shows GI50 equal to 5.16 µM

Lab book: GI50 of COC(=O)c1ccc2c(c1)[n+](=O)c(C(C)=O)c(C(F)(F)F)n2[O-] noted as 2.22 µM

Form: compound = COc1cccc(-n2cnc3c(N/N=C/c4ccncc4)ncnc32)c1 ; GI50 = 7.88 µM

Measured values drawn from PubChem BioAssay (NCI) for this set.
